// Increase in HR lookup, one value per entry
Tested on: Canis familiaris
Experiment: Percent increase in heart rate was measured in anesthetized dogs
Assay type: functional, Canis lupus familiaris
Output spec: scalar in %, unitless text.

The cases that follow already have their Increase in HR on record.
{"columns": ["compound", "Increase in HR, %"],
 "data": [
  ["O=C1CCC(c2ccc3c(c2)CCC(=O)N3)=NN1", 13.2],
  ["O=C1CCC(c2ccccc2)=NN1", 39.1],
  ["O=C1CCC(c2ccc(-c3ccncc3)cc2)=NN1", 19.1],
  ["CC(=O)Nc1ccc(C2=NNC(=O)CC2)cc1", 8.8],
  ["O=C1CCC(c2ccc(-c3ccccc3)cc2)=NN1", 18.8]
]}

Qu. // query Increase in HR value for entry `O=C1CCC(c2ccc3c(c2)CCCN3)=NN1`
Ans. 37

Qu. // query Increase in HR value for entry O=C1CCC(c2ccc(-n3ccnc3)cc2)=NN1 [IMAZODAN]
Ans. 16.9

Qu. // query Increase in HR value for entry `O=C1CCC(c2ccc(-c3cccnc3)cc2)=NN1`
Ans. 7.5
